System: RARb homodimer (NR concentration 270 nM)
Test Method Notes: PBM binding z-score (relative to random genomic background probes); higher = stronger binding; sequences stand for … in GC…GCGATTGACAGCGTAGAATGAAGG
Parameter: PBM binding z-score
Could you respond with only the numeric value?

CCGACTGGGGTAAAGGTTACCATACTCAGTACGA    1.83
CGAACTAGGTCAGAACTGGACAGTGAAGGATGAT    1.62
ATGTCTAGGTAAAAGTTCAGTGAATCCCGAGGAT    2.32
CCGACTGAGGCAGAAAGGTTACCATACCATCCGG    2.04
TGAATGAGGTTATAAGATCACGGAACGTTGCAAA    0.253

Sample CAAACTAGGTCACGAAACGTCAAAGTCGAATGAC — what was its PBM binding z-score? 3.21

Sample AGTCAAACTTCATCTAGGTAACGTAAGATATGCT — what was its PBM binding z-score? -0.47

Sample TTACCAAAGTGAGCTGAGGTCGTTGATCCAACTC — what was its PBM binding z-score? 0.526

Sample CGTAGTTGGTCAAGGTCACACACGCTATAGGTAC — what was its PBM binding z-score? 4.23

Sample CGAACTAGGTCAGAACAGGACAGTGGAGGATGAT — what was its PBM binding z-score? 2.31

Sample ATCGAAACGTCGAAGGTGAGTATACCCACCCGAA — what was its PBM binding z-score? -0.0717

Sample GCTTGTAGATCAAGGTTAAAAAAGACTAAGCTAA — what was its PBM binding z-score? 0.0487

----------
System: RARg:RXRa (NR concentration 270 nM, RXRa partner concentration 90 nM)
Test Method Notes: PBM binding z-score (relative to random genomic background probes); higher = stronger binding; sequences stand for … in GC…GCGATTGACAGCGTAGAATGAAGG
# label = bin(measured PBM binding z-score), where bins are low-valued (below 0.6), mid-valued (0.6 to below 3), high-valued (3 or more)

Reference set (3 entries):
GCACATAGGTAATACAAGGTGAAAGTCCGATTGT    low-valued
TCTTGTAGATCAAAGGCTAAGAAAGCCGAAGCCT    low-valued
CGTCCAAGATCAGCAGGTCAGTGAAAGCGACGTG    mid-valued

Assign a category based on measured PBM binding z-score for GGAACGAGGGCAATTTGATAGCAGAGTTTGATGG and give only the class name. mid-valued

Assign a category based on measured PBM binding z-score for TCTTGTTGATCAACAGGAGGTTAAGAAAGATCGA and give only the class name. low-valued

Assign a category based on measured PBM binding z-score for CCATACAGGTGAAAGGTAACTCAGTCTGGTACGC and give only the class name. mid-valued

Assign a category based on measured PBM binding z-score for ATCGAAAGGTCGCGAGGTGAGTATACAGAAAGGC and give only the class name. high-valued

----------
Tested on: RARa:RXR (NR concentration 270 nM, RXRa partner concentration 90 nM)
Test Method Notes: PBM binding z-score (relative to random genomic background probes); higher = stronger binding; sequences stand for … in GC…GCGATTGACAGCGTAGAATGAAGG
Each entry gets F if its PBM binding z-score stays under 1, and T if its PBM binding z-score is 1 or above.

Reference set (3 entries):
CAAACTAGGTCACGAAAGGTCAAAGACGAATGAC    T
AGAACGAGGGCCATGAGTTGATAGCACGGGTGGC    F
AATACACGGTCATCGTAGGCCAGAGTACGCACAG    F

I'd appreciate it if you could say whether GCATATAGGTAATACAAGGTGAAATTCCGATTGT has PBM binding z-score at least equal to 1. T

I'd appreciate it if you could say whether AGAATGAGGTAAAGATCAGGGAAACAGAATACAT has PBM binding z-score at least equal to 1. F

I'd appreciate it if you could say whether AGAACGAGGACAATGAGTTGATAGCACGGGTGGC has PBM binding z-score at least equal to 1. F

I'd appreciate it if you could say whether TCGGCTAGGTCAACGATGGTCAGCTAATCTGCTA has PBM binding z-score at least equal to 1. T

I'd appreciate it if you could say whether CCTATTGGGCCAAAAAGGTCATTGATGCCGATAA has PBM binding z-score at least equal to 1. T

I'd appreciate it if you could say whether AGAATGAGGTTACCAAATATCAGGGAAACGCTTG has PBM binding z-score at least equal to 1. T

I'd appreciate it if you could say whether TCATATAAGTAAAAGGTGAAAGTCGGTGTGGTAA has PBM binding z-score at least equal to 1. T

I'd appreciate it if you could say whether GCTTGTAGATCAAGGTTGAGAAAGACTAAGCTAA has PBM binding z-score at least equal to 1. F

I'd appreciate it if you could say whether CGAACTAGGTCATTGAAAGGACAGTGAATAGTAA has PBM binding z-score at least equal to 1. T

I'd appreciate it if you could say whether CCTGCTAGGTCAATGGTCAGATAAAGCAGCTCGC has PBM binding z-score at least equal to 1. T

I'd appreciate it if you could say whether TTACCAAGGTGGGCTGAGGTCGTTGATCCAACTC has PBM binding z-score at least equal to 1. T

I'd appreciate it if you could say whether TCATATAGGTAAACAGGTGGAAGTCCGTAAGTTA has PBM binding z-score at least equal to 1. F

I'd appreciate it if you could say whether CGAACTAGGTCAGATCAGGACAGTGAAGGATGAT has PBM binding z-score at least equal to 1. T

I'd appreciate it if you could say whether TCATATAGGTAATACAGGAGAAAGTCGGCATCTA has PBM binding z-score at least equal to 1. F

I'd appreciate it if you could say whether TCTATTAGTTGAAGGGCAACCGACGAGTCCGTTT has PBM binding z-score at least equal to 1. F

I'd appreciate it if you could say whether ACTCGGAGGACAAAGGTCAGAGCAACGCCAGTGA has PBM binding z-score at least equal to 1. T

I'd appreciate it if you could say whether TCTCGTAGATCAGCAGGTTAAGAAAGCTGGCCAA has PBM binding z-score at least equal to 1. F

I'd appreciate it if you could say whether TGAATGAGGTTAACGATCAGGGAACGTGGCGTCG has PBM binding z-score at least equal to 1. T

I'd appreciate it if you could say whether TCCAGTAGGTTAGTCGGGGCATTCAGCCAACATA has PBM binding z-score at least equal to 1. F

I'd appreciate it if you could say whether TAGCCTAGGTCATGGGCCAGTATGCCACGCGAAC has PBM binding z-score at least equal to 1. T

I'd appreciate it if you could say whether GCTTGTAGATCAGGGTTAAGAAAGACTAAGCTAA has PBM binding z-score at least equal to 1. F

I'd appreciate it if you could say whether GCGACTGGGGCATCAGCATGTTACCATAACTTAA has PBM binding z-score at least equal to 1. F

I'd appreciate it if you could say whether GCTGCTAGGTCAACTGATGTTCAGCTAAAGCTCG has PBM binding z-score at least equal to 1. T
